Tested on: HS 578T breast
Experimental details: NCI-60 one-dose screen, 48 h
Cond: 10 µM unless noted
The panel holds about 83,000 compounds, 20% with a hit somewhere; the sample as a whole holds those more often. Calls of active or inactive are those of the source. Rule for the calls: active = growth percent below 10; inactive = the rest.
Outcome codes: active, inactive

Molecule	Target of assay	Answer label
CCN(C(=O)CN1C(=O)/C(=C/c2ccco2)SC1=S)C1CCS(=O)(=O)C1 (centres undefined)	HS 578T breast	inactive
C=CC(=O)Nc1ccc(C(=O)/C=C/c2ccc(N(C)C)cc2)c(O)c1	HS 578T breast	inactive
CCN1C(=O)N(CC)C2NNC(Sc3c(C(=O)O)c4ccccc4n(CC(C)C)c3=O)=NC21 (centres undefined)	HS 578T breast	active
Cc1ccc(C(=O)C[n+]2cccc3c4ccccc4ccc32)cc1	HS 578T breast	inactive
O=C(Nc1ccc(-c2ccc3c(c2)NC(=O)/C3=C\c2ccc[nH]2)cc1)Nc1ccc(Cl)c(Cl)c1	HS 578T breast	inactive
O=C(c1ccc(Cl)cc1)C1[C@H](c2ccccc2Cl)[C@@H](c2ccccc2)NC12C(=O)Nc1ccccc12 (some centres undefined)	HS 578T breast	active
Cn1cc(-c2cc(N)n3nc(-c4c[nH]c5ccc(F)cc45)cc3n2)c2cccnc21	HS 578T breast	active
COc1c(F)ccc(C(=O)Nc2ccc3nc(NC(=O)C4CCCN(S(=O)(=O)c5ccc(C(C)(C)C)cc5)C4)sc3c2)c1F (centres undefined)	HS 578T breast	inactive
CCCCNc1ccc2c3c(cccc13)C(=O)N(c1cccc(-c3nn(-c4ccccc4)cc3-c3nc4ccccc4s3)c1)C2=O	HS 578T breast	inactive

----------
Test system: MALME-3M melanoma
Experimental details: NCI-60 one-dose screen, 48 h
Cond: 10 µM unless noted
The panel holds about 83,000 compounds, 20% with a hit somewhere; the sample as a whole holds those more often. Calls of active or inactive are those of the source. Rule for the calls: active = growth percent below 10; inactive = the rest.
Outcome codes: active, inactive

Molecule	Answer label
COc1ccc([C@H]2C(C(=O)c3ccc(Cl)cc3)C3(N[C@@H]2c2ccccc2)C(=O)Nc2ccccc23)cc1 (stereo partly drawn)	inactive
S=C(NCCc1ccccc1)Nc1ccc(OCc2nc3ccc(Cl)cc3[nH]2)cc1	inactive
COc1ccc(NC(=O)Cn2c(/C=C/c3cccc(Br)c3)nc3ccccc3c2=O)cc1	inactive
COc1cc(C=O)ccc1OC(=O)c1cc(-c2ccc(C)cc2)n(-c2ccc(S(C)(=O)=O)cc2)n1	inactive
COc1ccc(OC)c(Cn2cc(C#N)c(N)c2C(=O)c2ccc(Br)cc2)c1	inactive
CN1CCN(C(=O)CCN(C(=O)Oc2cc3c(c4ccccc24)[C@H](CCl)CN3C(=O)c2cc3cc(OCCCN4CCC4)ccc3[nH]2)[C@H]2CCSSC2)CC1	active
Cn1cc(-c2cc(N)n3nc(-c4c[nH]c5ccccc45)cc3n2)c2cc(Cl)ccc21	active
CS(=O)(=O)c1ccc(-n2nc(C(=O)NCc3ccccc3)cc2-c2ccc(Cl)cc2)cc1	inactive

----------
Test system: PC-3 prostate
Experimental details: NCI-60 one-dose screen, 48 h
Cond: 10 µM unless noted
This is part of a sample that, as a whole, favours compounds with a hit. Of some 83,000 tested, about 20% had one in any assay. The source made the active and inactive calls. The calls were made as follows: active = growth percent below 10; inactive = the rest.
Outcome codes: active, inactive

Molecule	Answer label
COc1c2c(c(Br)c3c1C(CCc1ccccc1)N(C)CC3)OCO2 (stereo not given)	inactive
CCOC(=O)/C(F)=C/C1CC1CCc1ccc(OCC)cc1 (stereo not given)	inactive
N/C(=N\c1nc2ccccc2s1)NC(=O)Nc1ccccc1[N+](=O)[O-]	inactive
c1n[nH]cc1-c1nc2ccc3[nH]ncc3c2c2c1CC1(CCOCC1)CC2	inactive
S=C(Nc1ccccc1)Nc1ccc(OCc2nc3ccc(Cl)cc3[nH]2)cc1	inactive
O=C(CSc1nnc(-c2ccc(-c3nc4ccc(Cl)cc4[nH]3)cc2)o1)Nc1ccc(Cl)cc1	active
O=Cc1cncc(-c2ccc3ncnc(N4CCc5cc(F)c(Cl)cc54)c3c2)c1	inactive
CCCCCCCCc1cccc(CC(=O)Nc2ccc(C)cc2C(=O)O)c1	inactive
O=C(N/N=C/c1ccsc1)c1[nH]c2ccc(Br)cc2c1-c1ccccc1	active
Oc1ccc(Cl)c(Nc2ncnc3c2cnn3CC(Cl)c2ccc(Br)cc2)c1 (stereo not given)	inactive
